- target-under-test: HCV NS3/4A PR (S139A) (Hepatitis C virus subtype 1a, UniProt A8DG50, A1066T/I1043Q/I1044E/L1039E/L1040E/L1047Q/S1165A, form not given)
- measurement-description: Biacore 8K binding kinetics of PRSIM binding molecules
- measurement-conditions: 10 nM simeprevir present
Binary call on Rmax: Condition met from 90 RUs upward, Condition not met beneath that.

[[record]]
molecule = "PRSIM_36: Tn3 PRSIM binding molecule, SEQ ID NO: 8 (protein, PRSIM_36) RLDAPSQIEVKDVTDTTALITWSWPRDDDYDIWYFELTYGIKDVPGDRTTIKLLNYASPYSIGNLKPDTEYEVSLISVVPDTYGRGTSNPAKITFKTGL"
discrete_label = "Condition met"

[[record]]
molecule = "PRSIM_47: Tn3 PRSIM binding molecule, SEQ ID NO: 9 (protein, PRSIM_47) RLDAPSQIEVKDVTDTTALITWSRPGVSIWYFELTYGIKDVPGDRTTIKLDYRSYYYSIGNLKPDTEYEVSLISGSYGLVGVRASNPAKITFKTGL"
discrete_label = "Condition not met"

[[record]]
molecule = "PRSIM_67: scFv PRSIM binding molecule, SEQ ID NO: 13 (protein, PRSIM_67) scFv: EVQLVQSGAEVKKPGAAVRISCKTSGYVFTSYYVHWVRQAPGQGLEWMGVINPSGGNTNYAQKFQDRVTMTRDTSTTTVYMELSSLMFDDTAVYYCAKRDYGGPLANWGRGTLVTVSSGGGGSGGGGSGGGGSALSYELTQPPSVSEAPRQRVTISCSGSSSNIGNNAVNWYQQLPGKAPKLLIFYDDLLPSGVSDRFSGSKSGTSASLAISGLQSEDEADYYCAAWDDSLNGLVFGTGTKLTVL"
discrete_label = "Condition not met"

[[record]]
molecule = "PRSIM_23: Tn3 protein specific for HCV NS3/4A PR (S139A):simeprevir complex, SEQ ID NO: 5 (protein, PRSIM_23) RLDAPSQIEVKDVTDTTALITWVDPRYDDIWWFELTYGIKDVPGDRTTIKLYLNDPYYSIGNLKPDTEYEVSLISYTGDSYSRSGSNPAKITFKTGL"
discrete_label = "Condition met"

